- TEST: Determined to achieve reproducible taste; ++ indicates ~10-40 times as sweet as sucrose
Non-standard residues stand in square brackets, D forms with d. Residues, ends and D or L forms follow the SMILES beside them. ξ: configuration not given here. Phe(3-OMe) = COc1cccc(C[C@H](N)C(=O)O)c1; ξmTyr = NC(Cc1cccc(O)c1)C(=O)O; ξY = NC(Cc1ccc(O)cc1)C(=O)O
Listing: Taste of selected compounds

[[record]]
compound = "COC(=O)[C@H](Cc1cccc(OC)c1)NC(=O)[C@@H](N)CC(=O)O (H-Asp-[Phe(3-OMe)]-OMe)"
assay_value = "~10-40 times as sweet as sucrose"

[[record]]
compound = "COC(=O)C(Cc1cccc(O)c1)NC(=O)[C@@H](N)CC(=O)O (stereo partly drawn) (H-Asp-[ξmTyr]-OMe)"
assay_value = "~10-40 times as sweet as sucrose"


Now for the compound whose Taste we want.
In: // Taste lookup, key: COC(=O)C(Cc1ccc(O)cc1)NC(=O)[C@@H](N)CC(=O)O (stereo partly drawn) (H-Asp-[ξY]-OMe)
Out: ~10-40 times as sweet as sucrose
